- Test system: A549
- test description: Antiproliferative activity against human A549 cells assessed as reduction in cell viability after 24 hrs by MTT assay
- Format: functional, cell-based
- experimental conditions: A549, 24 h
Provide the recorded log10 of IC50 for the entries that follow.
Recall that a logarithmic scale is used here: each number is log10 of IC50 in µM.

> print(dat)
                            chemical.string  test.value
1   Cc1cccc(Nc2ncc(Br)c(Oc3ccc(Br)cc3)n2)c1        1.01
2   CNC(=O)c1ccccc1Oc1nc(Nc2ccccc2OC)ncc1Br        1.61
3  CNC(=O)c1ccccc1Oc1nc(Nc2ccc(Br)cc2)ncc1Br        1.37

Below is a list of molecules. For each, state its recorded log10 of IC50.
1. CCN(CC)CCNc1ccnc(Nc2cc(OC)c(OC)c(OC)c2)n1
2. COc1cc(Nc2nccc(NCCCN)n2)cc(OC)c1OC
3. Cc1cccc(Nc2ncc(Br)c(Oc3ccc(OCc4ccccc4)cc3)n2)c1

1.67
1.47
1.69

Below is a list of molecules. For each, state its recorded log10 of IC50.
1. O=[N+]([O-])c1ccc(Oc2nc(Nc3ccc(Cl)cc3)ncc2Br)c(F)c1
2. Cc1cccc(Nc2ncc(Br)c(Oc3cc(Cl)cc(Cl)c3)n2)c1
3. CNC(=O)c1ccccc1Oc1nc(Nc2ccc(Cl)cc2F)ncc1Br

1: 1.58; 2: 1.64; 3: 1.58

Below is a list of molecules. For each, state its recorded log10 of IC50.
1. COc1cc(Nc2ncc(Br)c(Oc3ccc([N+](=O)[O-])cc3F)n2)cc(OC)c1OC
2. Cc1cccc(Nc2ncc(Br)c(Oc3cccc([N+](=O)[O-])c3)n2)c1
3. COc1cc(Nc2ncc(I)c(NCCCN)n2)cc(OC)c1OC

0.29
1.39
1.60

Below is a list of molecules. For each, state its recorded log10 of IC50.
1. CNC(=O)c1ccccc1Oc1nc(Nc2cccc(Br)c2)ncc1Br
2. CCN(CC)CCNc1nc(Nc2cc(OC)c(OC)c(OC)c2)ncc1I
3. CNC(=O)c1ccccc1Oc1nc(Nc2cccc(C(C)C)c2)ncc1Br
4. CNC(=O)c1ccccc1Oc1nc(Nc2cc(OC)c(OC)c(OC)c2)ncc1Br
5. CCOc1ccccc1Oc1nc(Nc2cccc(C)c2)ncc1Br
6. CNC(=O)c1ccccc1Oc1nc(Nc2cccc(OC)c2)ncc1Br
7. Cc1cccc(Nc2ncc(Br)c(Oc3cccc(F)c3)n2)c1
8. O=[N+]([O-])c1ccc(Oc2nc(Nc3ccc(Br)cc3)ncc2Br)c(F)c1

1.03
1.23
0.85
0.83
1.31
0.79
1.14
1.71

Would you mind telling me what log10 of IC50 value was observed for CNC(=O)c1ccccc1Oc1nc(Nc2cccc(C)c2)ncc1Br ? 0.79

* * *

- measured target: Serine/threonine-protein kinase ULK1 (Homo sapiens) (UniProt O75385)
- Sequence (O75385 whole entry): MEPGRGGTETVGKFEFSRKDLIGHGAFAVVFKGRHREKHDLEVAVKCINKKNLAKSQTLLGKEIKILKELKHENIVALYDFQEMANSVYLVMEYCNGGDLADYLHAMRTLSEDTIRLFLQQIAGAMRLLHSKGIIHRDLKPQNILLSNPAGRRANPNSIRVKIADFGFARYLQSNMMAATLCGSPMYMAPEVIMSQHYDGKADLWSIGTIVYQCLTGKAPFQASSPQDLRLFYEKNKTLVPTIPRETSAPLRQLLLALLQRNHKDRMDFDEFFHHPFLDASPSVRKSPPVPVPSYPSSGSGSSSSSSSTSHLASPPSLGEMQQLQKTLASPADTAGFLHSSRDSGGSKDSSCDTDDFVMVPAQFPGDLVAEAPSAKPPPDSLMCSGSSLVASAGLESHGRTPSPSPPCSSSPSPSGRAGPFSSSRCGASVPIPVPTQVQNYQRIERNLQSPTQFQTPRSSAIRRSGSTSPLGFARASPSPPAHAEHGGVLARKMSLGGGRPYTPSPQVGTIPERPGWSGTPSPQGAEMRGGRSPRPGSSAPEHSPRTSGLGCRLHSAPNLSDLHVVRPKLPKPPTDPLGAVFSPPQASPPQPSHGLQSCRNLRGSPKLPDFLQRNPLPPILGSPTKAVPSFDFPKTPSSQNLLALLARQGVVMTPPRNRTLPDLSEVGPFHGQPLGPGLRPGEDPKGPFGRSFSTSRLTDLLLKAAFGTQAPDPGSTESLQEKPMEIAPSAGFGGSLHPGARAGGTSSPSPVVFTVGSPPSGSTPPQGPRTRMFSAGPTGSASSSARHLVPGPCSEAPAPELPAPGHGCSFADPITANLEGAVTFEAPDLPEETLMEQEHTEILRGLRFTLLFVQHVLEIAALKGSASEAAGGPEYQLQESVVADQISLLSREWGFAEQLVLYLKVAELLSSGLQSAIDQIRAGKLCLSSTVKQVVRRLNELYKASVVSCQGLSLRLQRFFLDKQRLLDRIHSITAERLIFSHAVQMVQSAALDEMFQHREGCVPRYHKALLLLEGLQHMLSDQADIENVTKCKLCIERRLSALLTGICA
- test description: Inhibition of recombinant human ULK1 at 10 uM preincubated for 60 mins followed by substrate addition and measured after 30 mins by ADP-glo assay
- experimental conditions: time 90.0 min
Is inhibition at least 40%? Then met. If not, not met.

As a guide, the following entries are already answered.
> print(dat)
                            chemical.string                           measured.target  answer.label
1  Cc1cccc(Nc2ncc(Br)c(Oc3cc(Cl)cc(Cl)c3)n2)c1  Serine/threonine-protein kinase ULK1 (Homo sapiens) (UniProt O75385)       not met
2        COc1cc(Nc2nccc(NCCCN)n2)cc(OC)c1OC  Serine/threonine-protein kinase ULK1 (Homo sapiens) (UniProt O75385)       not met
3      CCOc1ccccc1Oc1nc(Nc2cccc(C)c2)ncc1Br  Serine/threonine-protein kinase ULK1 (Homo sapiens) (UniProt O75385)           met
4  CNC(=O)c1ccccc1Oc1nc(Nc2cccc(C(F)(F)F)c2)ncc1Br  Serine/threonine-protein kinase ULK1 (Homo sapiens) (UniProt O75385)       not met

Decide: is the reported value of inhibition for CNC(=O)c1ccccc1Oc1nc(Nc2ccccc2F)ncc1Br equal to or greater than 40%? not met

Decide: is the reported value of inhibition for CNC(=O)c1ccccc1Oc1nc(Nc2cccc(C(C)C)c2)ncc1Br equal to or greater than 40%? met

Decide: is the reported value of inhibition for CNC(=O)c1ccccc1Oc1nc(Nc2ccccc2OC)ncc1Br equal to or greater than 40%? not met

Decide: is the reported value of inhibition for CNC(=O)c1ccccc1Oc1nc(Nc2ccc(Cl)cc2F)ncc1Br equal to or greater than 40%? not met

Decide: is the reported value of inhibition for CNC(=O)c1ccccc1Oc1nc(Nc2cccc(Br)c2)ncc1Br equal to or greater than 40%? met

* * *

Provide the recorded inhibition for the entries that follow.
- measured target: Serine/threonine-protein kinase ULK1 (Homo sapiens) (UniProt O75385)
- test description: Inhibition of recombinant human ULK1 at 10 uM preincubated for 60 mins followed by substrate addition and measured after 30 mins by ADP-glo assay
- experimental conditions: time 90.0 min
Numbers only, in %.

Answered cases to consult:
> print(dat)
                            chemical.string  unit.name  test.value
1  CNC(=O)c1ccccc1Oc1nc(Nc2ccc(C(F)(F)F)cc2)ncc1Br          %        21.6
2    Cc1cccc(Nc2ncc(Br)c(Oc3cccc(F)c3)n2)c1          %        49.3
3     COc1cc(Nc2ncc(I)c(NCCCN)n2)cc(OC)c1OC          %        32.3
4  CNC(=O)c1ccccc1Oc1nc(Nc2ccc3c(c2)OCO3)ncc1Br          %        22.2
5   Cc1cccc(Nc2ncc(Br)c(Oc3ccc(Br)cc3)n2)c1          %        25.7
6  CCN(CC)CCNc1nc(Nc2cc(OC)c(OC)c(OC)c2)ncc1I          %        44.9
7  CNC(=O)c1ccccc1Oc1nc(Nc2cccc(C)c2)ncc1Br          %        73.7
8  CNC(=O)c1ccccc1Oc1nc(Nc2cccc(OC)c2)ncc1Br          %        50.5

Below is a list of compounds. For each, state its recorded inhibition.
1. COc1cc(Nc2ncc(Br)c(Oc3ccc([N+](=O)[O-])cc3F)n2)cc(OC)c1OC
2. CNC(=O)c1ccccc1Oc1nc(Nc2ccc(C)cc2C)ncc1Br
3. CNC(=O)c1ccccc1Oc1nc(Nc2ccc(Br)cc2)ncc1Br
4. O=[N+]([O-])c1ccc(Oc2nc(Nc3ccc(Br)cc3)ncc2Br)c(F)c1

99.2
38.2
40.1
12.5

Below is a list of compounds. For each, state its recorded inhibition.
1. Cc1cccc(Nc2ncc(Br)c(Oc3cccc([N+](=O)[O-])c3)n2)c1
2. CCN(CC)CCNc1ccnc(Nc2cc(OC)c(OC)c(OC)c2)n1
3. O=[N+]([O-])c1ccc(Oc2nc(Nc3ccc(Cl)cc3)ncc2Br)c(F)c1
4. Cc1cccc(Nc2ncc(Br)c(Oc3ccc(OCc4ccccc4)cc3)n2)c1

1. 40.2
2. 13.4
3. 15.7
4. 16.3
